Where these numbers come from: ChEMBL document CHEMBL1154456

Listed below: Activity values for each entry.
targetUnderTest: Peroxisome proliferator-activated receptor delta (Homo sapiens)
assayExplanation: Agonist activity at human PPARdelta expressed in african green monkey CV1 cells co-transfected with Gal4 assessed as reporter activity by transient transactivation assay
Assay type: functional, cell-based
Parameters: concentration or dose not given beside the values
measurementContext: CV-1

Lab request: please report Activity under test system Peroxisome proliferator-activated receptor delta (Homo sapiens) for CC(C)OC(Cc1ccc(OCCc2noc(-c3ccc(Cl)cc3)n2)cc1)C(=O)O (stereo not given) 40%

// same read-out, input: CC(C)OC(Cc1ccc(OCCc2noc(-c3ccc(F)cc3)n2)cc1)C(=O)O (stereo not given) < 40%

// same read-out, input: CC(C)OC(Cc1ccc(OCCc2noc(-c3cc(C(F)(F)F)cc(C(F)(F)F)c3)n2)cc1)C(=O)O (stereo not given) < 40%

// same read-out, input: CC(C)OC(Cc1ccc(OCc2noc(C3CCCCC3)n2)cc1)C(=O)O (stereo not given) < 40%

// same read-out, input: CC(C)OC(Cc1ccc(OCCc2noc(-c3ccccc3)n2)cc1)C(=O)O (stereo not given) < 40%
